Every entry's value here was drawn from paper PMC6370799.

- test_target: activin receptor-like kinase 5 (ALK5) (Homo sapiens)
- Sequence (P36897 34-503): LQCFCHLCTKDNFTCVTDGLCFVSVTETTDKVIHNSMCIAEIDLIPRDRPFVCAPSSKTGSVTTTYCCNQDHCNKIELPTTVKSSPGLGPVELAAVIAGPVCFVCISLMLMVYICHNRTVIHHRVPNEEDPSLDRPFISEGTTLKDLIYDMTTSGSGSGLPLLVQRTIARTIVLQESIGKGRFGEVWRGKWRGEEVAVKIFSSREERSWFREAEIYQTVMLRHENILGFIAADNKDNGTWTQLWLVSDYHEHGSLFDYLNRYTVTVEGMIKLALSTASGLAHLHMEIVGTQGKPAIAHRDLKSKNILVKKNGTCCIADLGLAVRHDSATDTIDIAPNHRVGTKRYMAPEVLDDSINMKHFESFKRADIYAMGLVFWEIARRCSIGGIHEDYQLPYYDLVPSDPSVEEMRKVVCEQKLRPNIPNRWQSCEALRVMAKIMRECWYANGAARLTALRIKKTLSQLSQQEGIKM
readout_kind: IC50 (µM)
One number for each entry, in µM.

| molecule | IC50 / µM |
| --- | --- |
| O=c1c(O)c(-c2ccc(O)c(O)c2)oc2cc(O)cc(O)c12 [quercetin] | 1.48 |

The record that follows has no IC50 shown yet.
Incoming: What value of IC50 on activin receptor-like kinase 5 (ALK5) (Homo sapiens) does O=c1c(O)c(-c2cc(O)c(O)c(O)c2)oc2cc(O)cc(O)c12 [myricetin] have?
Outgoing: 4.08
